TARGET_OR_SYSTEM: human Nav1.5 (Homo sapiens (Human))
Sequence (Q14524 whole entry): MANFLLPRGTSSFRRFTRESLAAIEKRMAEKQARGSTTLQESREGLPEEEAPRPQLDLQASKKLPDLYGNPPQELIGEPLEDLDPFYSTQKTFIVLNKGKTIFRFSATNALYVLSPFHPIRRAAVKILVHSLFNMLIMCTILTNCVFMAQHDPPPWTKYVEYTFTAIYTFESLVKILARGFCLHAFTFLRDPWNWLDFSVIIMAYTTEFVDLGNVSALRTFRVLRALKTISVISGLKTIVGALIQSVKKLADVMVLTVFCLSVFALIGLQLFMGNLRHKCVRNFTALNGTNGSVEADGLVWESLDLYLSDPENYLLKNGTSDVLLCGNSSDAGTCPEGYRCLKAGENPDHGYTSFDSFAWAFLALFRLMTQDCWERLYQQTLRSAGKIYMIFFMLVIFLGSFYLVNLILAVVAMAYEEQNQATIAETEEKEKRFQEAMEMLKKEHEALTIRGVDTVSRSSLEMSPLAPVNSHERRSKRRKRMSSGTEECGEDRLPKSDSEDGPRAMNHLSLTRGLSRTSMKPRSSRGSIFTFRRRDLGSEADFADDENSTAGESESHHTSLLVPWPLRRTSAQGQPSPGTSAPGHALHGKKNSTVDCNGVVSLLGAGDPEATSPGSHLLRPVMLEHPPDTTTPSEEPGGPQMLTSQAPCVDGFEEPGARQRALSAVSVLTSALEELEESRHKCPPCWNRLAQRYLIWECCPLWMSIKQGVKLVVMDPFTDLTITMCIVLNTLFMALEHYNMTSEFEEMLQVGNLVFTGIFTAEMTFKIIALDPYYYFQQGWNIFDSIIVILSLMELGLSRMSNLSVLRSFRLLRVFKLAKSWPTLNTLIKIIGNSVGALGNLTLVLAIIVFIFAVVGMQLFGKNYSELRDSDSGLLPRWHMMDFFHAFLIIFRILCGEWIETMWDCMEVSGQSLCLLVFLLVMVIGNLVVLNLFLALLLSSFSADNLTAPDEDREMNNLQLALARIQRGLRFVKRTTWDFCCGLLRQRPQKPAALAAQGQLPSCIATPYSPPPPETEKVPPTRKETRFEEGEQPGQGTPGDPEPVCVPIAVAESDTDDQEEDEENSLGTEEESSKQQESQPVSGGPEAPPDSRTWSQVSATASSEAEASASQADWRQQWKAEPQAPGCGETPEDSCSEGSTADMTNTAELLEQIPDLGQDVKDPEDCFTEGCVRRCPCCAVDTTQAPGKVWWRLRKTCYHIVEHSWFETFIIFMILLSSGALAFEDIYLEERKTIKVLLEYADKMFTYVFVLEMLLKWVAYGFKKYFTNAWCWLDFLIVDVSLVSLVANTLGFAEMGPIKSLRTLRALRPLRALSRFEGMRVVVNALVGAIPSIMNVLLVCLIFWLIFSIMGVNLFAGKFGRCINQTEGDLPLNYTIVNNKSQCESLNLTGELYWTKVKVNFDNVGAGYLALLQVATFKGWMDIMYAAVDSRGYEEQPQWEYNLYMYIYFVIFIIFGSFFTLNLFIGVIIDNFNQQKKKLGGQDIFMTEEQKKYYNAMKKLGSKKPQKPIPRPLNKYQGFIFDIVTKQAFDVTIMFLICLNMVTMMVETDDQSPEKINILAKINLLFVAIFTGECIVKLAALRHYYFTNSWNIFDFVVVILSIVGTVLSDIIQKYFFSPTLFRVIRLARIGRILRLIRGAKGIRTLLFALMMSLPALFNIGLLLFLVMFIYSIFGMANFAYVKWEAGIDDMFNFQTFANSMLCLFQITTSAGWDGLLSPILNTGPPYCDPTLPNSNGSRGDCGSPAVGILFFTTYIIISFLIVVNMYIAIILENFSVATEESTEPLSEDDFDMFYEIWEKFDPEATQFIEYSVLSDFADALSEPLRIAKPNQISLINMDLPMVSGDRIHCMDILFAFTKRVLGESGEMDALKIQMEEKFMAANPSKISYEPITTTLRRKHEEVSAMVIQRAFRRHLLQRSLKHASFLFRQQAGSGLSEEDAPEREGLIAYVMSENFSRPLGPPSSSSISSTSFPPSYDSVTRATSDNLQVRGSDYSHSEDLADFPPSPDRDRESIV
TEST_METHOD_NOTES: Human Nav1.5 inhibitory activity evaluation (automated patch clamp QPatch16X, HEK293 cells stably expressing human Nav1.5)
Assay type: cell-based
SETUP_CONDITIONS: HEK293 cells stably expressing human Nav1.5, automated patch clamp QPatch16X
pIC50: −log10 of the molar value.
PROPERTY_LABEL: pIC50

Input: Short answer please: pIC50, human Nav1.5 (Homo sapiens (Human)), entry CCCOCC1CCn2nc(C(=O)N[C@H]3COc4ccc(C#N)cc4C3)cc2O1 (stereo partly shown) [Example 100]
Output: ≤ 5.52

Input: Param item: C[C@@H]1CCn2nc(C(=O)N[C@H]3COc4ccc(Cl)cc4C3)cc2O1 [Example 87]
Output: ≤ 5.52

Input: Param item: N#Cc1ccc2c(c1)C[C@@H](NC(=O)c1cc3n(n1)CCC(COCC(F)(F)F)O3)CO2 (mixture of isomers) [Example 114]
Output: ≤ 5.52

Input: Param item: C[C@H]1CCn2nc(C(=O)N[C@H]3COc4ccc(Cl)cc4C3)cc2O1 [Example 86]
Output: ≤ 5.52

Input: Param item: O=C(N[C@H]1COc2ccc(COCC(F)(F)F)cc2C1)c1cc2n(n1)CCC(COCC(F)(F)F)O2 (single isomer, unassigned) [129 (isomer B)]
Output: 5.52 to 6.00

Input: Param item: CCOCC1CCn2nc(C(=O)N[C@H]3COc4ccc(-c5ccc(C#N)nc5)cc4C3)cc2O1 (stereo partly shown) [Example 125]
Output: ≤ 5.52

Input: Param item: COc1cccc(-c2c(C(=O)N[C@H]3COc4ccc(Cl)cc4C3)nc3n2CCCC3)n1 [Example 17]
Output: 5.52 to 6.00
